Measured values drawn from PubChem BioAssay AID1159580 for this set.

Assay notes: chemical genetic growth profiling, strain panel (AID 1159580);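 also: tested at 20 µM; growth read once vehicle control cultures reached saturation at 30 °C; 1 = growth at the plate median or of vehicle wells; lower values mean less growth of the strain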
Cond: S. cerevisiae deletion strains, growth OD, locus YER002W, strain NOP16, stronger effect = lower value
Screen size: about 5,500 compounds; about 2,000 (36%) were called active. Another 18% or so got no clear call; they are omitted. This is one part of the list.
Listed molecules paired with reported normalized growth

Molecule | normalized growth
CCCN(CCC)[C@@H]1CCc2cccc(O)c2C1 | 0.977
NC1(C(=O)O)CCc2cc(C(=O)O)ccc21 (stereo not drawn) | 0.997
CCCN(CCC)[C@@H]1CCc2c(F)ccc(O)c2C1 | 1

###

Assay notes: chemical genetic growth profiling, strain panel (AID 1159580);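 also: tested at 20 µM; growth read once vehicle control cultures reached saturation at 30 °C; 1 = growth at the plate median or of vehicle wells; lower values mean less growth of the strain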
Cond: S. cerevisiae deletion strains, growth OD, locus YDL132W, strain cdc53
About 2,000 (36%) of roughly 5,500 compounds were called active. Another 18% or so got no clear call; they are omitted. Rule as the data show it: active = normalized growth mostly below about 0.91 (no sharp cut-off); inconclusive = no clear call, values can overlap the other calls; inactive = mostly above about 0.92. This is one part of the list.
Outcome codes: active, inactive

Smiles representation | Label value
Oc1ccc(-n2nnnc2SCc2ccc(OC(F)(F)F)cc2)cc1 | inactive
COC(=O)c1ccc(Oc2c(C(F)(F)F)oc3cc(O)ccc3c2=O)cc1 | inactive
O=C(NNc1c(Cl)cccc1Cl)c1ccc([N+](=O)[O-])o1 | inactive
Cc1c(Cl)cccc1N=C1SCC(=O)N1Cc1ccco1 | inactive
O=C(NCc1ccc(F)c(Cl)c1)Nc1csc([N+](=O)[O-])c1 | inactive
COc1cccc(C(=O)C(C#N)=C(SC)SC)c1 | active
Cc1c(NCN2C(=O)CCC2=O)cc2c(c1[N+](=O)[O-])C(C)(C)CC2(C)C | inactive
CSC(SC)=C(C#N)C(=O)c1ccccc1Cl | active
Nc1ccccc1C(=O)N/N=C\c1cc(Cl)cc(Cl)c1O | inactive
O=C(Nc1ccc(Cl)cc1)c1csc([N+](=O)[O-])c1 | inactive
Cc1ccc(C(=O)Nc2ccc3ccccc3n2)cc1 | inactive
O=C(Nc1ccc(OC(F)(F)F)cc1)Nc1cncc(C(F)(F)F)c1 | inactive
